- Test system: VP-MCC cell lines (WAGA, MKL-1, MKL-2)
- test.method.notes: qHTS cell viability, VP-MCC cell lines as a group (mean AUC, VP.MCC.avg)
- Type: cell-based, human
- reported.conditions: MIPE library, Control AUC minus VP-MCC AUC (therapeutic window), sheet S2E
Counter-ions that a name gives are not always drawn.
Some compounds, each annotated with its measured Control-VP-MCC.
The answer should be a number; do not append a unit.

Below: 3 compounds and their reported Control-VP-MCC.
Task: Record lookup: for VP-MCC cell lines (WAGA, MKL-1, MKL-2), what Control-VP-MCC belongs to CN1CCCC(n2nc(Cc3ccc(Cl)cc3)c3ccccc3c2=O)CC1 (stereo not shown) [Azelastine hydrochloride] ?
Result: 149.127

Task: Here is the next compound: C=C1C(=O)[C@]23[C@H](O)[C@H]1CC[C@H]2[C@@]12CO[C@]3(O)[C@@H](O)[C@@H]1C(C)(C)CC[C@@H]2O [Oridonin]
Result: 79.3252

Task: Here is the next compound: CC(C)(C)OC(=O)Nc1ccc(-c2cc(C(=O)NCCCCCCC(=O)NO)no2)cc1 [ISOX]
Result: 51.9911

Next item in the queue.
Task: Record lookup: for VP-MCC cell lines (WAGA, MKL-1, MKL-2), what Control-VP-MCC belongs to COc1ccc(C(=O)CC(=O)c2ccc(C(C)(C)C)cc2)cc1 ?
Result: 140.718
